Hello, the source for this data is PubChem BioAssay (EPA / NIEHS), in case you need it.

experiment: CCTE_Simmons_MITO_inhib_resp_rate: CCTE's HepG2 Seahorse XF Respirometric Screening Assay at Inhibited Respiratory State [full ETC block], Simmons Lab (AID 2284006); settings: actives raise or lower the signal
The source made the active and inactive calls. Rule for the calls: active = hit-call score of the fitted dose curve at least 0.9, where 1 is the maximum; inactive = score below 0.9.
PROPERTY: AC50

C=C(C)[C@H]1Cc2c(ccc3c2O[C@@H]2COc4cc(OC)c(OC)cc4[C@@H]2C3=O)O1: 0.0842 µM (active)
O=[N+]([O-])c1cc(C(F)(F)F)c(Cl)c([N+](=O)[O-])c1Nc1ncc(C(F)(F)F)cc1Cl: inactive
CC(C)N(C(=O)SCC(Cl)=C(Cl)Cl)C(C)C: inactive
